Data provenance is patent US12139474B2.

- experimental.target: human LPAR1 (Homo sapiens)
- Construct: host or cells: CHO-K1
- Sequence (Q92633 whole entry): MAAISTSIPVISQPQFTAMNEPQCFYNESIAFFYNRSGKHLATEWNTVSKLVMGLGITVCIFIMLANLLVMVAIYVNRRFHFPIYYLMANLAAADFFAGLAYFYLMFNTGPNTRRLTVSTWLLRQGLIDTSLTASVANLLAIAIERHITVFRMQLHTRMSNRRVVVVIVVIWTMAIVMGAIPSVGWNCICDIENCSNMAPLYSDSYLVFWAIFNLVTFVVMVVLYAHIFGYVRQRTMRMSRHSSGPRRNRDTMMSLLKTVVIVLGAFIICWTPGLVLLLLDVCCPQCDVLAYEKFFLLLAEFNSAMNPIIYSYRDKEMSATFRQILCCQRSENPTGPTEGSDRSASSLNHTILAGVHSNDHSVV
- test.description: LPAR1 intracellular calcium mobilization assay (antagonist mode)
- Type: cell-based
- run.conditions: CHO-K1 EDG2 cells expressing human LPAR1; 60 min pre-incubation with compound, then LPA 18:2 at EC80 (100 nM); FLIPR calcium signal
measured.endpoint: EC50 (nM)
The reply should be a number in nM, with the unit left off.

For human LPAR1 (Homo sapiens), give EC50 of the listed compound: "C[C@@H](OC(=O)Nc1c(-c2ccc3c(c2)C(C)(C)OC(=O)N3)nnn1C)c1cccnc1F"
4610

For human LPAR1 (Homo sapiens), give EC50 of the listed compound: "Cn1nnc(-c2ccc3c(n2)OCC(=O)N3)c1NC(=O)O[C@H](CF)c1ccccc1"
100

For human LPAR1 (Homo sapiens), give EC50 of the listed compound: CC(OC(=O)Nc1c(-c2ccc3c(n2)OCC(=O)N3)nnn1C)c1cc(F)ncc1F (stereo not shown)
1980

For human LPAR1 (Homo sapiens), give EC50 of the listed compound: "C[C@@H](OC(=O)Nc1c(-c2ccc3c(c2)COC(=O)N3)nnn1C)c1cccnc1Cl"
525

---

- experimental.target: human LPAR1 (Homo sapiens)
- Construct: host or cells: CHO-K1
- test.description: LPAR1 intracellular calcium mobilization assay (antagonist mode)
- Assay type: cell-based
- run.conditions: CHO-K1 EDG2 cells expressing human LPAR1; 60 min pre-incubation with compound, then LPA 18:2 at EC80 (100 nM); FLIPR calcium signal
Please note: EC50 exactly at 200 nM is f. Only values below 200 nM get t.

Strictly below 200 nM: is that where EC50 of "C[C@@H](OC(=O)Nc1c(-c2ccc3c(n2)OCC(=O)N3)nnn1C)c1cc(Cl)cnc1F" sits?
t

Strictly below 200 nM: is that where EC50 of "C[C@@H](OC(=O)Nc1c(-c2ccc3c(c2)CCC(=O)N3)nnn1C)c1cccnc1Cl" sits?
f

Strictly below 200 nM: is that where EC50 of "C[C@@H](OC(=O)Nc1c(-c2nc3c(cc2F)NC(=O)CO3)nnn1C)c1cccnc1Cl" sits?
f

Strictly below 200 nM: is that where EC50 of "C[C@@H](OC(=O)Nc1c(-c2cc(F)c3c(c2)CCC(=O)N3)nnn1C)c1cccnc1Cl" sits?
t

Strictly below 200 nM: is that where EC50 of "C[C@@H](OC(=O)Nc1c(-c2ccc3c(n2)OCC(=O)N3)nnn1C)c1cc(F)cnc1Cl" sits?
t

Strictly below 200 nM: is that where EC50 of "C[C@@H](OC(=O)Nc1c(-c2ccc3[nH]c(=O)ccc3c2)nnn1C)c1ccccc1Cl" sits?
f

Strictly below 200 nM: is that where EC50 of C[C@@H](OC(=O)Nc1c(-c2ccc3c(n2)OC(c2ccccc2)C(=O)N3)nnn1C)c1cccnc1Cl (stereo partly shown) sits?
t

Strictly below 200 nM: is that where EC50 of CC1Oc2nc(-c3nnn(C)c3NC(=O)O[C@H](C)c3cc(F)cnc3Cl)ccc2NC1=O (stereo partly shown) sits?
t

Strictly below 200 nM: is that where EC50 of "C[C@@H](OC(=O)Nc1c(-c2ccc3c(c2)OCC(=O)N3)nnn1C)c1ccccc1Cl" sits?
t

Strictly below 200 nM: is that where EC50 of C[C@@H](OC(=O)Nc1c(-c2ccc3c(n2)OC(C(F)(F)F)C(=O)N3)nnn1C)c1cc(F)cnc1Cl (stereo partly shown) sits?
t

Strictly below 200 nM: is that where EC50 of "C[C@@H](OC(=O)Nc1c(-c2ccc3c(c2F)CCC(=O)N3)nnn1C)c1cccnc1Cl" sits?
f

Strictly below 200 nM: is that where EC50 of CCC1Oc2nc(-c3nnn(C)c3NC(=O)O[C@H](C)c3cccnc3Cl)ccc2NC1=O (stereo partly shown) sits?
f

Strictly below 200 nM: is that where EC50 of "C[C@@H](OC(=O)Nc1c(-c2ccc3c(n2)OC(C)(C)C(=O)N3)nnn1C)c1cccnc1Cl" sits?
f

Strictly below 200 nM: is that where EC50 of "C[C@@H](OC(=O)Nc1c(-c2ccc3c(n2)OCC(=O)N3)nnn1C)c1cc(F)cnc1F" sits?
t

Strictly below 200 nM: is that where EC50 of "C[C@@H](OC(=O)Nc1c(-c2ccc3c(c2)CCC(=O)N3)nnn1C)c1cc(F)cnc1Cl" sits?
t

Strictly below 200 nM: is that where EC50 of "C[C@@H](OC(=O)Nc1c(-c2ccc3c(c2)COC(=O)N3)nnn1C)c1ccccc1Cl" sits?
f

---

- experimental.target: human LPAR1 (Homo sapiens)
- Construct: host or cells: CHO-K1
- test.description: LPAR1 intracellular calcium mobilization assay (antagonist mode)
- Type: cell-based
- run.conditions: CHO-K1 EDG2 cells expressing human LPAR1; 60 min pre-incubation with compound, then LPA 18:2 at EC80 (100 nM); FLIPR calcium signal
Binned EC50; ranges: class 1 (below 100 nM), class 2 (100 nM to below 300 nM), class 3 (300 nM or more)

Record "C[C@@H](OC(=O)Nc1c(-c2ccc3c(n2)COC(=O)N3)nnn1C)c1cccnc1Cl" — which class?
class 2

Record "C[C@@H](OC(=O)Nc1c(-c2cc3c(cc2F)NC(=O)CC3)nnn1C)c1cccnc1Cl" — which class?
class 2

Record "C[C@@H](OC(=O)Nc1c(-c2ccc3c(c2)CC(=O)N3)nnn1C)c1ccccc1Cl" — which class?
class 3

Record "C[C@@H](OC(=O)Nc1c(-c2ccc3c(c2)CCC(=O)N3)nnn1C)c1ccccc1Cl" — which class?
class 1

Record "C[C@@H](OC(=O)Nc1c(-c2ccc3c(n2)OCC(=O)N3)nnn1C)c1cccnc1Cl" — which class?
class 2

Record "C[C@@H](OC(=O)Nc1c(-c2ccc3c(c2)OCC(=O)N3)nnn1C)c1cccnc1Cl" — which class?
class 2

Record CC1Oc2nc(-c3nnn(C)c3NC(=O)O[C@H](C)c3cccnc3Cl)ccc2NC1=O (stereo partly shown) — which class?
class 1

Record CC1Oc2nc(-c3nnn(C)c3NC(=O)O[C@H](C)c3cc(F)cnc3F)ccc2NC1=O (stereo partly shown) — which class?
class 3

Record "C[C@@H](OC(=O)Nc1c(-c2ccc3c(c2)N(C)CC(=O)N3)nnn1C)c1ccccc1Cl" — which class?
class 2

Record "C[C@@H](OC(=O)Nc1c(-c2cnc3c(c2)OCC(=O)N3)nnn1C)c1cccnc1Cl" — which class?
class 3
